Target protein (sequence): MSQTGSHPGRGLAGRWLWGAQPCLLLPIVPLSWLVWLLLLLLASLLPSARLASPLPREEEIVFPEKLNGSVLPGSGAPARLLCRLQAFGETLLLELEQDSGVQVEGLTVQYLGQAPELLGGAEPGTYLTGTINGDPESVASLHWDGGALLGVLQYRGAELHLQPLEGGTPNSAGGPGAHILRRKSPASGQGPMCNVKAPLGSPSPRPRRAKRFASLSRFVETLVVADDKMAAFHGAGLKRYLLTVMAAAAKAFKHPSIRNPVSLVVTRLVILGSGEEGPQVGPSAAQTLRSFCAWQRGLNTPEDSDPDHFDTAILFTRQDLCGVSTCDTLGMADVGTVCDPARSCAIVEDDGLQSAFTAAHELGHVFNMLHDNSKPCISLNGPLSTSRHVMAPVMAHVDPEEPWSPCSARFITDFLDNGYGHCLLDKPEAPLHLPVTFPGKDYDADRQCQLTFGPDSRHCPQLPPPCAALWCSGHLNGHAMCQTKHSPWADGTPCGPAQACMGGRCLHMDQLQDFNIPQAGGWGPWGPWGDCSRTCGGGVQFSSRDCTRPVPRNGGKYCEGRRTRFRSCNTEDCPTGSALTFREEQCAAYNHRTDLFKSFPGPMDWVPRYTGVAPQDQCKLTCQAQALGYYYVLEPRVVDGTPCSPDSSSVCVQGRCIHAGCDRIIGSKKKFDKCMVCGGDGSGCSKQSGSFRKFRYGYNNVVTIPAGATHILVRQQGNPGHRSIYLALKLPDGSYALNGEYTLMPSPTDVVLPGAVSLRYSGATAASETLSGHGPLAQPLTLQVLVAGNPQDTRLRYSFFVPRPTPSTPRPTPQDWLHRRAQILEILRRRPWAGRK
pIC50: −log10 of the molar value.
Please use the following pIC50 ranges when assigning a class: low class = under 5, middle class = from 5 up to 6, high class = 6 and over

Q: State the class of the compound shown: C[C@@H](NS(=O)(=O)c1ccc(-c2ccccc2)cc1)C(=O)O
A: middle class

Q: State the class of the compound shown: CC(C)[C@@H](NS(=O)(=O)c1ccc(-c2ccccc2O)cc1)C(=O)O
A: low class

Q: State the class of the compound shown: CC(C)[C@@H](NS(=O)(=O)c1ccc(-c2ccccc2[N+](=O)[O-])cc1)C(=O)O
A: low class

Q: State the class of the compound shown: CC(C)[C@@H](NS(=O)(=O)c1ccc(-c2ccccc2)c(N)c1)C(=O)O
A: low class

Q: State the class of the compound shown: CC(C)[C@@H](NS(=O)(=O)c1ccc(-c2ccc(/C=C/c3cc4ccccc4o3)cc2)cc1)C(=O)O
A: high class

Q: State the class of the compound shown: O=C(O)[C@@H](Cc1ccccc1)NS(=O)(=O)c1ccc(-c2ccccc2)cc1
A: middle class

Q: State the class of the compound shown: CC(C)[C@@H](NS(=O)(=O)c1cccc(-c2ccccc2)c1)C(=O)O
A: low class

Q: State the class of the compound shown: Cc1c(C(=O)Oc2ccc(-c3ccc(S(=O)(=O)N[C@@H](C(=O)O)C(C)C)cc3)cc2)oc2ccccc12
A: high class

Q: State the class of the compound shown: CC(C)[C@@H](NS(=O)(=O)c1ccc(-c2ccccc2)cc1)C(=O)O
A: middle class

Q: State the class of the compound shown: O=C(O)[C@@H](Cc1cc2ccccc2[nH]1)NS(=O)(=O)c1ccc(-c2ccccc2)cc1
A: middle class
